Kindly state 3xMBT/D355N UNC Heavy for each of the entries shown.
- Tested on: 3×MBT domain of L3MBTL1
- assay name: Triple SILAC pull-down, 3xMBT/3xMBTD355N ratio (cytoplasmic, nuclear and chromatin fractions of 293T cells);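 also: proteins quantified with MaxQuant, requiring at least two unique peptides and quantification in both label directions, normalized to the mean of proteins from a digested loading control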
- Format: binding, human
- experimental parameters: SILAC ratio 3xMBT vs 3xMBTD355N pull-down, 293T cells; experiment with UNC0638 in heavy SILAC media; all values in log base 2

DUSP3 (protein, UniProt P51452 1-185, looked up) Dual specificity protein …: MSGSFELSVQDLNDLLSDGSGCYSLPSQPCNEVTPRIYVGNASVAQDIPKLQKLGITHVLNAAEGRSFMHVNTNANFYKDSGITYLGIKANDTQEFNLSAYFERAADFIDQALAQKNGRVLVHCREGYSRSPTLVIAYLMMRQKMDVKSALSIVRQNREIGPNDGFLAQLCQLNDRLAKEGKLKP: 1.97 log base 2

Incoming: // query 3xMBT/D355N UNC Heavy value for entry THYN1 (protein, UniProt Q9P016 1-225, looked up) Thymocyte nuclear protein 1: MSRPRKRLAGTSGSDKGLSGKRTKTENSGEALAKVEDSNPQKTSATKNCLKNLSSHWLMKSEPESRLEKGVDVKFSIEDLKAQPKQTTCWDGVRNYQARNFLRAMKLGEEAFFYHSNCKEPGIAGLMKIVKEAYPDHTQFEKNNPHYDPSSKEDNPKWSMVDVQFVRMMKRFIPLAELKSYHQAHKATGGPLKNMVLFTRQRLSIQPLTQEEFDFVLSLEEKEPS
Outgoing: 2.42 log base 2

Provenance of the data: patent US20140274782A1
